Reference for the values: patent US10888547B2

procedure_summary: Approximate solubility in organic solvents from solvent addition
Type: physicochemical
assay_conditions: organic solvent or mixture, thermodynamic from solid; Methanol, room temperature (20-25° C.)
endpoint_name: solubility

The reported solubility of the compound CCCCCCCC(=O)N[C@H](CN1CCCC1)[C@H](O)c1ccc2c(c1)OCCO2 [Formula (I) Hemitartrate] was > 200 mg/mL

###

procedure_summary: Approximate solubility in organic solvents from solvent addition
Format: physicochemical
assay_conditions: organic solvent or mixture, thermodynamic from solid; p-Dioxane, room temperature (20-25° C.)
endpoint_name: solubility

The reported solubility of the compound CCCCCCCC(=O)N[C@H](CN1CCCC1)[C@H](O)c1ccc2c(c1)OCCO2 [Formula (I) Hemitartrate] was < 5000 µg/mL

###

procedure_summary: Approximate solubility in organic solvents from solvent addition
Type: physicochemical
assay_conditions: organic solvent or mixture, thermodynamic from solid; Isopropyl alcohol, room temperature (20-25° C.)
endpoint_name: solubility

The reported solubility of the compound CCCCCCCC(=O)N[C@H](CN1CCCC1)[C@H](O)c1ccc2c(c1)OCCO2 [Formula (I) Hemitartrate] was < 5000 µg/mL

###

assayed_system: UniProt:P35573
Sequence (P35573 whole entry, species assumed): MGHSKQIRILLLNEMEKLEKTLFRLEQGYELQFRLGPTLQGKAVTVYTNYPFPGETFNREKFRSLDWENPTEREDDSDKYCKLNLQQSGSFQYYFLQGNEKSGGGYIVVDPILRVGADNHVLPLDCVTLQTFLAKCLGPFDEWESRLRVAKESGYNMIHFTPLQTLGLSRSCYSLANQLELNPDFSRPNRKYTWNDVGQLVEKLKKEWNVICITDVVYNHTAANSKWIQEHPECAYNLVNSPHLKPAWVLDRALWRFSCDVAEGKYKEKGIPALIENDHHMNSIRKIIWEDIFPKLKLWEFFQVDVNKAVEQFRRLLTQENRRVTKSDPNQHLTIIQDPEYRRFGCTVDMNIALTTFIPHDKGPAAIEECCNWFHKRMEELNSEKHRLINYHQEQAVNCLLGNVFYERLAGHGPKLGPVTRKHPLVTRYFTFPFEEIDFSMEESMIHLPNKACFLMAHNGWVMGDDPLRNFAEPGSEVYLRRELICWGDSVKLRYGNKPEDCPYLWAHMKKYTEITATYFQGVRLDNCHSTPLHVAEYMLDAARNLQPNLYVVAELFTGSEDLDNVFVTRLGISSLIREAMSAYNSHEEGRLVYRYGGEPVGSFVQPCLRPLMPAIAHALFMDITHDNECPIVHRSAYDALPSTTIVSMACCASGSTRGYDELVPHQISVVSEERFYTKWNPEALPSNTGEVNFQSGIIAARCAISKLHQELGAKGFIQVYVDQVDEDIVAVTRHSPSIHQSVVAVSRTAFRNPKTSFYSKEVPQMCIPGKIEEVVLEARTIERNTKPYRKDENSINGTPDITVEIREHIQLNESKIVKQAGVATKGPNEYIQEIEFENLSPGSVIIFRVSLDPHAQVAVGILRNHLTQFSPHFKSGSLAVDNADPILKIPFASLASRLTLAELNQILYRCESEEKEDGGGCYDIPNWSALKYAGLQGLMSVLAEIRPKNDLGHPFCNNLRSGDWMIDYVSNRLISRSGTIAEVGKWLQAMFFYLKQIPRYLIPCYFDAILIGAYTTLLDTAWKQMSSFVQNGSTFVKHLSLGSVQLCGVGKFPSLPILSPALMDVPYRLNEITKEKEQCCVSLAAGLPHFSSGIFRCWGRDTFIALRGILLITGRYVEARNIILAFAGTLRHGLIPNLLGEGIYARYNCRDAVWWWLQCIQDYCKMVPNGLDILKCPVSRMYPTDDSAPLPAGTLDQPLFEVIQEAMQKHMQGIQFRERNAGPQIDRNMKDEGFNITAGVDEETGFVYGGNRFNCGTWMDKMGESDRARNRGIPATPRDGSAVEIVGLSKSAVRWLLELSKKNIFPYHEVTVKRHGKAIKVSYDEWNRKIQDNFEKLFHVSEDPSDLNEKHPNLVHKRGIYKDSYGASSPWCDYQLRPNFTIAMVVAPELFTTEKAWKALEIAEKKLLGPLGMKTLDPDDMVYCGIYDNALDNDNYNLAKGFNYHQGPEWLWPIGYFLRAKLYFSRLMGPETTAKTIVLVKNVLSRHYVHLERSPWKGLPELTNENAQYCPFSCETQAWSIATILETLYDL
endpoint_name: IC50

Value sought: IC50, system UniProt:P35573, item CCCCCCCC(=O)N[C@H](CN1CCCC1)[C@H](O)c1ccc2c(c1)OCCO2 [Formula (I) Hemitartrate] . Result: > 2500 µM

###

assayed_system: maltase
procedure_summary: Intestinal glycosidase assay in rat tissue homogenates
assay_conditions: read-out: Enzyme specificities, Ki: Maltase inhibition
pKi: −log10 of the molar value.
endpoint_name: pKi

The reported pKi of the compound CCCCCCCC(=O)N[C@H](CN1CCCC1)[C@H](O)c1ccc2c(c1)OCCO2 [Formula (I) Hemitartrate] was < 5.00

###

assayed_system: Non-lysosomal glucosylceramidase (GBA2) (Homo sapiens, UniProt Q9HCG7)
Construct: were assayed in intact human cells using C6-NBD-glucosylceramide as substrate; endogenous in cells
Sequence (Q9HCG7 whole entry): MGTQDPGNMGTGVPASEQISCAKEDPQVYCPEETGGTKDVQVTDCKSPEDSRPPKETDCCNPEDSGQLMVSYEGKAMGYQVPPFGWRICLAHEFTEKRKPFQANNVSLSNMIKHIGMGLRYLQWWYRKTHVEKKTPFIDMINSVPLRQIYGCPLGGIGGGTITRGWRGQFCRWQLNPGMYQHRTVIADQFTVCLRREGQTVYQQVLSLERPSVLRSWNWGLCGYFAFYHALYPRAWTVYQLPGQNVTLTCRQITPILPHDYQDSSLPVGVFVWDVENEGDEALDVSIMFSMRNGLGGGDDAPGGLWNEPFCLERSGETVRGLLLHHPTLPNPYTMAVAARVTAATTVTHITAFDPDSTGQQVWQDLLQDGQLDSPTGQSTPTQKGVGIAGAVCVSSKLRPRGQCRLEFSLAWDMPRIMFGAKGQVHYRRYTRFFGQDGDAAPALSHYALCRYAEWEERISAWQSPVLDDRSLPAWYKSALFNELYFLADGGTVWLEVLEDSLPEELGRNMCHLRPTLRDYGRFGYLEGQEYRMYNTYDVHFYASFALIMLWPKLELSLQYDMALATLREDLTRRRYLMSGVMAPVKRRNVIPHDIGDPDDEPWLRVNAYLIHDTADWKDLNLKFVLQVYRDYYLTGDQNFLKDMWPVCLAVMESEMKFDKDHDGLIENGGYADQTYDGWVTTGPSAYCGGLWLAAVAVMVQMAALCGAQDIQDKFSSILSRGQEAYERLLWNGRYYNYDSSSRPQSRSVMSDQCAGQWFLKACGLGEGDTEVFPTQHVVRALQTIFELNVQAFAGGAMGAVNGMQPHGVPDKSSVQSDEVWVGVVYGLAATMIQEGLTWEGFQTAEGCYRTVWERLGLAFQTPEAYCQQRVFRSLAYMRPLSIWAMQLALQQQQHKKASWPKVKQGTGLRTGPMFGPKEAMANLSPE
procedure_summary: Non-lysosomal glucosylceramidase in intact human cells, C6-NBD-glucosylceramide substrate
assay_conditions: read-out: Enzyme specificities, IC50: Non-lysosomal glucosylceramidase (GBA2)
endpoint_name: pIC50
A value of pIC50 is the negative decimal logarithm of a concentration given in moles per litre.

The reported pIC50 of the compound CCCCCCCC(=O)N[C@H](CN1CCCC1)[C@H](O)c1ccc2c(c1)OCCO2 [Formula (I) Hemitartrate] was 2.80

###

procedure_summary: Approximate solubility in organic solvents from solvent addition
Assay type: physicochemical
assay_conditions: organic solvent or mixture, thermodynamic from solid; Ethanol, room temperature (20-25° C.)
endpoint_name: solubility (mg/mL)
Report only the number, with the unit mg/mL understood.

The reported solubility of the compound CCCCCCCC(=O)N[C@H](CN1CCCC1)[C@H](O)c1ccc2c(c1)OCCO2 [Formula (I) Hemitartrate] was 29
